# Tested on: HS 578T breast
# assay_overview: NCI tumour cell line growth inhibition, 48 h
For each of the compounds below, state its log10 of TGI.
Please interpret these as log10 of TGI where TGI is in µM.

Query: log10 of TGI; subject: "COc1ccc(/C=N/n2c(C)n[nH]c2=O)c(OC)c1"
0.95

Query: log10 of TGI; subject: "c1cnc2c(c1)ccc1cccnc12"
1.99

Query: log10 of TGI; subject: "O=[N+]([O-])c1ccc(N2CCOCC2)c2c1no[n+]2[O-]"
0.62

Query: log10 of TGI; subject: "CCOC(=O)c1c(C)n(-c2ccc(Cl)cc2)c2c1cc(O)c1[nH]c3c(c12)CCCC3"
1.86

Query: log10 of TGI; subject: CCN1CCC(O)(/C=C/c2ccccc2C)C(C(=O)/C=C/c2ccccc2C)C1 (centres undefined)
1.21

Query: log10 of TGI; subject: "CCCCCCNC(=O)Oc1ccc(/C(=C(\C)c2ccc(Cl)cc2)c2ccc(OCCN3CCCCC3)cc2)cc1"
1.06

Query: log10 of TGI; subject: "COC(=O)CCCCC(=O)c1c(C)[nH]c(/C=C2\N=C(c3ccc[nH]3)C=C2OC)c1C"
0.48

Query: log10 of TGI; subject: "COc1ccc(/C=C(\C#N)n2nnc3c(F)cccc32)cc1"
0.30

Query: log10 of TGI; subject: "Cc1ccc(-c2nc([P+](c3ccccc3)(c3ccccc3)c3ccccc3)c(S(=O)(=O)c3ccc(C)cc3)o2)cc1"
0.73

Query: log10 of TGI; subject: "CCN(CC)CCCCCCNc1cc(OC)cc2cccnc12"
1.63

Query: log10 of TGI; subject: CC1OC(OC2C(O)CC(OC3C(O)CC(OC4CCC5(C)C(CCC6C5CC(O)C5(C)C(C7=CC(=O)OC7)CCC65O)C4)OC3C)OC2C)CC(O)C1O (centres undefined)
0.36

Query: log10 of TGI; subject: CC(=O)NC1C(OCc2ccccc2)OC(CO)C(O)C1OC(C)C(=O)NC(C)C(=O)NC(CCC(=O)NCCCCNc1c2ccccc2nc2cccc([N+](=O)[O-])c12)C(N)=O (centres undefined)
-0.25

Query: log10 of TGI; subject: C#CCNC(=O)[C@H](CC)[C@H]1CC[C@H](C)[C@H]([C@@H](C)[C@H](O)[C@H](C)C(=O)[C@H](CC)C2O[C@]3(C=CC(=O)[C@]4(CC[C@@](C)([C@H]5CC[C@](O)(CC)[C@H](C)O5)O4)O3)[C@H](C)C[C@@H]2C)O1 (some centres undefined)
0.83

Query: log10 of TGI; subject: CCOC(=O)C(C(=O)OCC)=C1NC2(c3ccccc3Nc3ccccc32)C(C#N)S1 (centres undefined)
1.67

Source listed as PubChem BioAssay (NCI).
